molecular target: Melatonin receptor type 1A (Homo sapiens)
Sequence (P48039 whole entry): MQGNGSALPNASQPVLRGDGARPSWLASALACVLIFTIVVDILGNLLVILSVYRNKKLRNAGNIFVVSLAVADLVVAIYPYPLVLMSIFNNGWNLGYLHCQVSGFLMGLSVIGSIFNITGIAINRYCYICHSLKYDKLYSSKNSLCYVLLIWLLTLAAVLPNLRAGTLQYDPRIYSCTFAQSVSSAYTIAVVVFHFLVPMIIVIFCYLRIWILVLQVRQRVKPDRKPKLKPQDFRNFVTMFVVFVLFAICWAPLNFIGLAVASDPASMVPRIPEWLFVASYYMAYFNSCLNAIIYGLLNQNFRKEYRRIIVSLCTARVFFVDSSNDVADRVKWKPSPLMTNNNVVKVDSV
pKi: −log10 of the molar value.
Kindly return class 1 if reported pKi is no lower than 7; return class 0 if it is lower.

Quick check: does C=CCC(=O)NCCc1c(Sc2ccc(F)cc2)sc2ccc(F)cc12 have pKi greater than or equal to 7? class 1

What about this molecule? CC(=O)NCCc1c(Sc2ccc(F)cc2)sc2ccc(F)cc12 class 1

What about this molecule? CC(=O)NCCc1csc2ccc(F)cc12 class 1

What about this molecule? O=C(NCCc1c(Sc2ccc(F)cc2)sc2ccc(F)cc12)C1CCC1 class 0

What about this molecule? C=CC(=O)NCCc1c(Sc2ccc(F)cc2)sc2ccc(F)cc12 class 0

----------
Would you mind telling me the reported Ratio Ki of each entry?
species: Homo sapiens; experiment: Selectivity ratio of Ki for human MT1 receptor to Ki for human MT2 receptor
No unit in the answer, only the number.

// lookup Ratio Ki for CC(=O)NCCc1c(Sc2ccc(F)cc2)sc2ccc(F)cc12 65.5

What about this compound? CCC(=O)NCCc1c(Sc2ccc(F)cc2)sc2ccc(F)cc12 51.4

What about this compound? O=C(CCCCl)NCCc1c(Sc2ccc(F)cc2)sc2ccc(F)cc12 115

What about this compound? C=CC(=O)NCCc1c(Sc2ccc(F)cc2)sc2ccc(F)cc12 22

What about this compound? O=C(CBr)NCCc1c(Sc2ccc(F)cc2)sc2ccc(F)cc12 4.2

What about this compound? CC(=O)NCCc1csc2ccc(F)cc12 5

What about this compound? O=C(NCCc1c(Sc2ccc(F)cc2)sc2ccc(F)cc12)C1CCC1 4.7

What about this compound? C=CCC(=O)NCCc1c(Sc2ccc(F)cc2)sc2ccc(F)cc12 220

----------
Would you mind telling me the reported Emax of each entry?
target: Melatonin receptor type 1B (Homo sapiens); assay: Agonist activity at human MT2 receptor expressed in CHO cells by [35S]GTPgamma binding assay relative to melatonin; assay type: functional, cell-based
Use % as the unit, but write only the number.

// lookup Emax for CC(=O)NCCc1csc2ccc(F)cc12 61

What about this molecule? O=C(CBr)NCCc1c(Sc2ccc(F)cc2)sc2ccc(F)cc12 47

What about this molecule? CC(=O)NCCc1c(Sc2ccc(F)cc2)sc2ccc(F)cc12 42

What about this molecule? C=CCC(=O)NCCc1c(Sc2ccc(F)cc2)sc2ccc(F)cc12 52.4

----------
Would you mind telling me the reported EC50 of each entry?
target: Melatonin receptor type 1A (Homo sapiens); assay: Agonist activity at human MT1 receptor expressed in CHO cells by [35S]GTPgamma binding assay; type: functional, cell-based
Use µM as the unit, but write only the number.

// lookup EC50 for CC(=O)NCCc1c(Sc2ccc(F)cc2)sc2ccc(F)cc12 0.202

What about this compound? C=CCC(=O)NCCc1c(Sc2ccc(F)cc2)sc2ccc(F)cc12 0.188

What about this compound? CC(=O)NCCc1csc2ccc(F)cc12 0.0238
